molecular target: hERG potassium ion channel (Homo sapiens (Human)); assay: hERG Assay (Assay 4); assay type: cell-based; details: HEK293 cells stably transfected with hERG cDNA, pH 7.4, Compound at 3 μM, patch clamp, HEK 293 cells
Sequence (Q12809 whole entry): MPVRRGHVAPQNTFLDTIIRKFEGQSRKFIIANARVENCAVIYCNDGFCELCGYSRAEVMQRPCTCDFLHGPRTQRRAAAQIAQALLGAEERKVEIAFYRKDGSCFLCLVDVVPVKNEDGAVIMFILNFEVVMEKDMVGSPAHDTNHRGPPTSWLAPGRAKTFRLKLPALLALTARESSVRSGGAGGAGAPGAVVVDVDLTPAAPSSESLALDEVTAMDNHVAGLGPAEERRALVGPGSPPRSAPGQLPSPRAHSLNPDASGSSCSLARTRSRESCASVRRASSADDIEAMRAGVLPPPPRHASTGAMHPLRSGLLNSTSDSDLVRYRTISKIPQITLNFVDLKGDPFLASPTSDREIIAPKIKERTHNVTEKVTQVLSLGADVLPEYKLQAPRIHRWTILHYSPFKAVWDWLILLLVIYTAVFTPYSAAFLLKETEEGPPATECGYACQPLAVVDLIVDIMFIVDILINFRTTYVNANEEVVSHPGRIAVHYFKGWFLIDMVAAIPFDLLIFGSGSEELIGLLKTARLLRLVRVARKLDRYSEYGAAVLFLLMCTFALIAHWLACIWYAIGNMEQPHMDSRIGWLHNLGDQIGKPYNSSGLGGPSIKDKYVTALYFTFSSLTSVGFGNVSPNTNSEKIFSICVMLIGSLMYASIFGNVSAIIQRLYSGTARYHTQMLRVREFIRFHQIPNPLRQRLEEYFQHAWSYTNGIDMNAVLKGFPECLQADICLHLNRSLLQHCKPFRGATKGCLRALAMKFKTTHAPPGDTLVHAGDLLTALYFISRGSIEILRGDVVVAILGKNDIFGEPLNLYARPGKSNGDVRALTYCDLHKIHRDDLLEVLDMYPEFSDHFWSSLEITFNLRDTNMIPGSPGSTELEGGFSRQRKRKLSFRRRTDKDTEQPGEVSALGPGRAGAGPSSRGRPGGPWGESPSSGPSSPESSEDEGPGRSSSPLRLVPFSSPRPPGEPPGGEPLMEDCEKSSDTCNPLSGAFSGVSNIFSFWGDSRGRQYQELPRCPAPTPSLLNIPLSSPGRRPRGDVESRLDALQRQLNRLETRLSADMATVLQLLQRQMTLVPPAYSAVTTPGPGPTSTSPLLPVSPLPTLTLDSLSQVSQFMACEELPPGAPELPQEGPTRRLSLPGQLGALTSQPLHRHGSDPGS
The following compounds are listed with their measured inhibition at 3 µM values.
Give your result in % as a bare value.

{"columns": ["compound", "inhibition at 3 µM / %"],
 "data": [
  ["CCS(=O)(=O)c1ccc([C@@H](CO)NC(=O)c2cnc3c(c2)CN(C[C@H]2CC[C@H](C(F)(F)F)CC2)[C@H]3C(C)C)nc1", 28.6],
  ["CCS(=O)(=O)c1ccc([C@H](NC(=O)c2cnc3c(c2)CN(C[C@H]2CC[C@H](C(F)(F)F)CC2)[C@H]3C(C)C)[C@H](C)O)cc1 (single isomer, unassigned)", 32.7]
]}

Could you now consider this next compound?
Query: Can you share its inhibition at 3 µM? I mean this compound: `CC[C@H]1c2ncc(C(=O)N[C@@H](CO)c3ccc(S(=O)(=O)CC)cc3)cc2CN1C[C@H]1CC[C@H](C(F)(F)F)CC1`
Reply: 7.7

###

biological target: full-length RORγt in Jurkat cells (Homo sapiens (Human), UniProt P51449)
Sequence (P51449 other isoform, or with tags, fused parts or gaps): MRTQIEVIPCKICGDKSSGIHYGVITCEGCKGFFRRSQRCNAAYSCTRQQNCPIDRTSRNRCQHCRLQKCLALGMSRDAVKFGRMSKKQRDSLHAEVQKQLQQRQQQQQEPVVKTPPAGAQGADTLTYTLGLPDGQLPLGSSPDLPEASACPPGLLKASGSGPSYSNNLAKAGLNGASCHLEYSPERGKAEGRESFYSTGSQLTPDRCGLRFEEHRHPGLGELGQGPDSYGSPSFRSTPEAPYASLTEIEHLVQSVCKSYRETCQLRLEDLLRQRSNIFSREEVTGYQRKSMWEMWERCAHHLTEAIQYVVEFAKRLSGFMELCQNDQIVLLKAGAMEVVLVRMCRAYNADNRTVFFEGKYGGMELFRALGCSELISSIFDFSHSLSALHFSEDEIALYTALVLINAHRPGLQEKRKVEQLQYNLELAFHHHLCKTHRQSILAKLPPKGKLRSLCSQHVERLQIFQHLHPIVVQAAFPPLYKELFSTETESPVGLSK
The following molecules are listed with their measured IC50 values.

Some molecules with recorded IC50:
{"columns": ["molecule", "IC50"],
 "data": [
  ["CCS(=O)(=O)c1ccc([C@H](CO)NC(=O)c2cnc3c(c2)CN(C[C@H]2CC[C@@H](C(F)(F)F)CO2)[C@H]3C(C)C)cc1 (single isomer, unassigned)", "> 1000 nM"],
  ["CCS(=O)(=O)c1ccc([C@H](CO)NC(=O)c2cnc3c(c2)CN(C[C@@H]2CC[C@@H](C(F)(F)F)OC2)[C@H]3C(C)C)cc1", "< 100 nM"],
  ["CCS(=O)(=O)c1ccc([C@H](CO)NC(=O)c2cnc3c(c2)CN(C[C@@H]2CC[C@@H](C(F)(F)F)OC2)[C@H]3C(C)C)nc1", "< 100 nM"]
]}

Query: Can you share its IC50? I mean this molecule: CCS(=O)(=O)c1ccc([C@H](CO)NC(=O)c2cnc3c(c2)CN(C[C@H]2CC[C@H](C(F)(F)F)CO2)[C@H]3C(C)C)cc1 (single isomer, unassigned)
Reply: < 100 nM

Query: Can you share its IC50? I mean this molecule: CC[C@H]1c2ncc(C(=O)N[C@@H](CO)c3ccc(S(=O)(=O)CC)cc3)cc2CN1C[C@H]1CC[C@H](C(F)(F)F)OC1 (single isomer, unassigned)
Reply: < 100 nM

Query: Can you share its IC50? I mean this molecule: CCS(=O)(=O)c1ccc([C@H](NC(=O)c2cnc3c(c2)CN(C[C@H]2CC[C@H](C(F)(F)F)CC2)[C@H]3C(C)C)[C@H](C)O)cc1 (single isomer, unassigned)
Reply: < 100 nM

Query: Can you share its IC50? I mean this molecule: CC[C@H]1c2ncc(C(=O)N[C@@H](CO)c3ccc(S(=O)(=O)CC)cc3)cc2CN1C[C@@H]1CC[C@@H](C(F)(F)F)OC1 (single isomer, unassigned)
Reply: < 100 nM

Query: Can you share its IC50? I mean this molecule: CCS(=O)(=O)c1ccc([C@@H](NC(=O)c2cnc3c(c2)CN(C[C@H]2CC[C@H](C(F)(F)F)CC2)[C@H]3C(C)C)[C@@H](C)O)cc1 (single isomer, unassigned)
Reply: < 100 nM

Query: Can you share its IC50? I mean this molecule: `CC[C@H]1c2ncc(C(=O)N[C@@H](CO)c3ccc(S(C)(=O)=O)cc3)cc2CN1C[C@H]1CC[C@H](C(F)(F)F)CC1`
Reply: < 100 nM

Query: Can you share its IC50? I mean this molecule: `CCS(=O)(=O)c1ccc([C@H](CO)NC(=O)c2cnc3c(c2)CN(C[C@H]2CC[C@H](C(F)(F)F)OC2)[C@H]3C(C)C)nc1`
Reply: < 100 nM

Query: Can you share its IC50? I mean this molecule: `CCS(=O)(=O)c1ccc([C@H](CO)NC(=O)c2cnc3c(c2)CN(C[C@@H]2CC[C@@H](C(F)(F)F)CO2)[C@H]3C(C)C)cc1`
Reply: < 100 nM

Query: Can you share its IC50? I mean this molecule: CCS(=O)(=O)c1ccc([C@H](CO)NC(=O)c2cnc3c(c2)CN(C[C@@H]2CC[C@H](C(F)(F)F)CO2)[C@H]3C(C)C)cc1 (single isomer, unassigned)
Reply: > 1000 nM
